# Assay Method Text: AUCinfinity in BALB/c nude mouse at 1 mg/kg, iv measured upto 24 hrs by LC-MS/MS analysis
# Type: ADME, organism-based
# Protocol Conditions: BALB/c nude, in vivo
Positions of bridges follow the written chain, without caps; N, C: chain ends. Non-standard residues stand in square brackets, D forms with d. Residues, ends and D or L forms follow the SMILES beside them. *: point of attachment. hPhe(3-Cl-4-CF3) = N[C@@H](CCc1ccc(C(F)(F)F)c(Cl)c1)C(=O)O; NMeGly(cPent) = CN[C@H](C(=O)O)C1CCCC1; NMeCha = CN[C@@H](CC1CCCCC1)C(=O)O; NMeD = CN[C@@H](CC(=O)O)C(=O)O; NMeL = CN[C@@H](CC(C)C)C(=O)O; Morpholide = C1CN(*)CCO1; NMeA = CN[C@@H](C)C(=O)O; Ac5c = NC1(C(=O)O)CCCC1; Aze = O=C(O)[C@@H]1CCN1; Sar = CNCC(=O)O
Property Name: AUC(0-inf) (ng·h/mL)
One number for each entry, in ng·h/mL.

Challenge: Query (molecule): CC[C@H](C)[C@@H]1NC(=O)[C@H](CC(C)C)N(C)C(=O)C[C@@H](C(=O)N2CCOCC2)N(C)C(=O)[C@H](C2CCCC2)N(C)C(=O)C2(CCCC2)NC(=O)[C@@H]2CCCN2C(=O)[C@H](CCc2ccc(C(F)(F)F)c(Cl)c2)NC(=O)CN(C)C(=O)[C@H](CC2CCCCC2)N(C)C(=O)[C@@H]2CCN2C(=O)[C@H](C)N(C)C1=O ([NMeL]I[NMeA][Aze][NMeCha][Sar][hPhe(3-Cl-4-CF3)]P[Ac5c][NMeGly(cPent)][NMeD]-Morpholide; lactam N-11) ; field requested: AUC(0-inf)
Response given: 1350

====

# Assay Method Text: Inhibition of biotin-tagged KRAS G12D mutant (unknown origin) to recombinant His-tagged SOS1 (unknown origin) protein-protein interaction incubated for 120 mins by AlphaLISA method
# Parameters: species or system Homo sapiens
Positions of bridges follow the written chain, without caps; N, C: chain ends. Non-standard residues stand in square brackets, D forms with d. Residues, ends and D or L forms follow the SMILES beside them. *: point of attachment. hPhe(3-Cl-4-CF3) = N[C@@H](CCc1ccc(C(F)(F)F)c(Cl)c1)C(=O)O; NMeCha = CN[C@@H](CC1CCCCC1)C(=O)O; NMeD = CN[C@@H](CC(=O)O)C(=O)O; NMeL = CN[C@@H](CC(C)C)C(=O)O; NMeV = CN[C@H](C(=O)O)C(C)C; NMeA = CN[C@@H](C)C(=O)O; Piperidide = C1CCN(*)CC1; Ac5c = NC1(C(=O)O)CCCC1; Aze = O=C(O)[C@@H]1CCN1; Sar = CNCC(=O)O
Property Name: pIC50
Numbers only, as −log10 of the molar value.

compound="CC[C@H](C)[C@@H]1NC(=O)[C@H](CC(C)C)N(C)C(=O)C[C@@H](C(=O)N2CCCCC2)N(C)C(=O)[C@H](CC2CCCCC2)N(C)C(=O)C2(CCCC2)NC(=O)[C@@H]2CCCN2C(=O)[C@H](CCc2ccc(C(F)(F)F)c(Cl)c2)NC(=O)CN(C)C(=O)[C@H](CC2CCCCC2)N(C)C(=O)[C@@H]2CCN2C(=O)[C@H](C)N(C)C1=O ([NMeL]I[NMeA][Aze][NMeCha][Sar][hPhe(3-Cl-4-CF3)]P[Ac5c][NMeCha][NMeD]-Piperidide; lactam N-11)" property_name=pIC50 value_measured=7.35

Let us examine a further case.
Challenge: What does the record list as pIC50 for CC[C@H](C)[C@@H]1NC(=O)[C@H](CC2CCCCC2)N(C)C(=O)C[C@@H](C(=O)N2CCCCC2)N(C)C(=O)[C@H](C(C)C)N(C)C(=O)C2(CCCC2)NC(=O)[C@@H]2CCCN2C(=O)[C@H](CCc2ccc(C(F)(F)F)c(Cl)c2)NC(=O)CN(C)C(=O)[C@H](CC2CCCCC2)N(C)C(=O)CN(C)C(=O)CN(C)C1=O ([NMeCha]I[Sar][Sar][NMeCha][Sar][hPhe(3-Cl-4-CF3)]P[Ac5c][NMeV][NMeD]-Piperidide; lactam N-11) ?
Response given: 7.60
